Target: 5-HT3 receptor (Rattus norvegicus, UniProt P35563)
Construct: from tissue; host or cells: whole animal (SD male rats), serotonin-induced bradycardia
Sequence (P35563 24-483): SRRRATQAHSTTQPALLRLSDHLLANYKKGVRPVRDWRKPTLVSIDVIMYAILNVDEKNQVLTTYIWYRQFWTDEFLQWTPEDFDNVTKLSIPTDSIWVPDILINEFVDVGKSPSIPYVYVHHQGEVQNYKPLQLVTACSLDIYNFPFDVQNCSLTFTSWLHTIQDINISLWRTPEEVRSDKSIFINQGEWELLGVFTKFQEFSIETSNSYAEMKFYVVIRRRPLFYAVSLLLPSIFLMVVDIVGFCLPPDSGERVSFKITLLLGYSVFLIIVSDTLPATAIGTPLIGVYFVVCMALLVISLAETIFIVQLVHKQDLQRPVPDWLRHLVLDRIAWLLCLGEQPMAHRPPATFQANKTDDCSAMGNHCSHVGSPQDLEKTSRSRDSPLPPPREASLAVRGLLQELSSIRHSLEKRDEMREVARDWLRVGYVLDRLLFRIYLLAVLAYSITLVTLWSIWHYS
Assay: Measurement of 5-HT3 receptor antagonistic action on rats (in vivo): inhibition of serotonin-induced bradycardia (BJ reflex)
Details: anesthetized SD male rats, dose 0.1 mg/kg intravenous, serotonin 300 μg/kg 10 minutes later
// BC Inhibition (%) lookup, one value per entry
Give the value, in units of %, as a plain number.

Previously resolved entries follow.
Identify the reported BC Inhibition (%) for the following entry. Cn1c(CCCCN2CCN(c3ccc4ccccc4n3)CC2)nc2c(c1=O)CCCC2 [Example 7-1]
90.3

Identify the reported BC Inhibition (%) for the following entry. Nn1c(CCCCN2CCN(c3ccc4ccccc4n3)CC2)nc2c(c1=O)CCCC2 [Example 4-1]
70.4

Identify the reported BC Inhibition (%) for the following entry. Nn1c(CCCCN2CCN(c3ccc4ccccc4n3)CC2)nc2ccsc2c1=O [Example 4-18]
35.6

Identify the reported BC Inhibition (%) for the following entry. Nn1c(CCCCN2CCN(c3ccc4ccccc4n3)CC2)nc2cccc(Cl)c2c1=O [Example 4-25]
49.1

Others:
Identify the reported BC Inhibition (%) for the following entry. Cc1cc(N2CCN(CCCCc3nc4ccccc4c(=O)n3N)CC2)nc2ccccc12 [Example 4-4]
68.7

###

Target: human 5-HT3 receptor (Homo sapiens)
Construct: purchased BIOLINKS K.K; host or cells: HEK-293 cells (membrane preparation)
Sequence (P46098 24-478): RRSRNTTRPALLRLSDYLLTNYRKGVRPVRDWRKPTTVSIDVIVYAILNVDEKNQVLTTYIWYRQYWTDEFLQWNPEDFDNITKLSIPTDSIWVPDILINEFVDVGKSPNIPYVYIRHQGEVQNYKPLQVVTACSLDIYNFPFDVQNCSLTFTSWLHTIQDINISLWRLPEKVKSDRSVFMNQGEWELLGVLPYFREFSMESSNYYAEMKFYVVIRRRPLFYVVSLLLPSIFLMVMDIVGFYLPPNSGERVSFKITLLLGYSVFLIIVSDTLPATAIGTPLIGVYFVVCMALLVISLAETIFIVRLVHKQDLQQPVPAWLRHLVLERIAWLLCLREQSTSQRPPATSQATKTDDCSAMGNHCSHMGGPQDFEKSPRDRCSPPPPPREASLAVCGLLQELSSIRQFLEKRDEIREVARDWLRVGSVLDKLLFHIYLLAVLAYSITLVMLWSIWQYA
Assay: Measurement of affinity to human 5-HT3 receptor (in vitro), [3H]BRL-43694 binding
Details: test compound 100 nmols/L; [3H]BRL-43694 0.5 nmols/L; HEK-293 cell membrane expressing human 5-HT3 receptor; read-out: Percent Inhibition (%) on Each Receptor's Binding at 10^−7M, 5-HT3
Measurement label: inhibition at 0.1 µM (%)
Give the value, in units of %, as a plain number.

Identify the reported inhibition at 0.1 µM for the following entry. `COc1ccc2ccnc(N3CCN4CCC[C@@H]4C3)c2c1`
97.9

Identify the reported inhibition at 0.1 µM for the following entry. `c1cnc2c(N3CCN4CCC[C@H]4C3)nccc2c1`
98.9

Identify the reported inhibition at 0.1 µM for the following entry. `Cc1cc2c(N3CCN4CCC[C@H]4C3)nccc2s1`
95.9

Identify the reported inhibition at 0.1 µM for the following entry. `O=c1[nH]c(NCCCN2CCN(c3ccc4ccccc4n3)CC2)nc2c1CCCC2`
94.8

Identify the reported inhibition at 0.1 µM for the following entry. `O[C@@H]1C[C@H]2CN(c3nccc4ccsc34)CCN2C1`
98.8

Others:
Identify the reported inhibition at 0.1 µM for the following entry. `O=c1c2ccccc2nc(CCCCN2CCN(c3ccc4ccccc4n3)CC2)n1Cc1ccccc1`
66.8

Identify the reported inhibition at 0.1 µM for the following entry. `Cn1c(CCCCN2CCN(c3ccc4ccccc4n3)CC2)nc2ccc(Cl)cc2c1=O`
99.7

src = patent US7799775B2
